- Tested on: SF-295
- test-protocol: NCI tumour cell line growth inhibition, 48 h
Activity calls are given as the source filed them. No stated cut-off is given here; in the data, active = GI50 up to about 1.1 µM and inactive = higher.
Just give me one of these, please: active, inactive

Nc1ccn(C2OC(COP(=O)(O)O)C(O)C2O)c(=O)n1 (stereo not given): inactive
CC(=O)O[C@H]1C(=O)[C@@]2(C)[C@H]([C@H](OC(=O)c3ccccc3)[C@@]3(O)C[C@H](O)C(C)=C1C3(C)C)[C@]1(OC(C)=O)CO[C@@H]1C[C@@H]2O: inactive
CN(C)C1C(O)=C(C(=O)NCN2CCCC2)C(=O)C2(O)C(O)=C3C(=O)c4c(O)cccc4C(C)(O)C3CC12 (stereo not given): inactive

# evaluate next
Dear all, I need the recorded test outcome for N#CC1(C2CC(=O)N(c3ccccc3)C2=O)CCCCC1=O (stereo not given) , thank you. inactive
